Sourced from ChEMBL document CHEMBL1140230

- ASSAY INFO: Metabolic stability in dog microsomes assessed as half life
- Assay type: ADME, Canis lupus familiaris, Microsome
Entries and their half-life
MEASURE NAME: half-life (min)

STRUCTURE SMILES STRING: O=S(=O)(N[C@H](CO)C(C(F)(F)F)C(F)(F)F)c1ccc(Cl)s1
MEASURE NAME: half-life
RECORDED VALUE: 31

STRUCTURE SMILES STRING: O=S(=O)(N[C@H](CO)C(CC(F)(F)F)CC(F)(F)F)c1ccc(Cl)s1
MEASURE NAME: half-life
RECORDED VALUE: 13

----------
- ASSAY INFO: Membrane permeability by PAMPA assay
- Type: ADME
- CONDITION: read-out: permeability
MEASURE NAME: Papp (×10⁻⁶ cm/s)

COMPOUND: CCC(CC)[C@@H](CO)NS(=O)(=O)c1ccc(Cl)s1 [GSI-136]
RECORDED VALUE: 12.5
